Every entry's value here was drawn from PubChem BioAssay.

test system: wheat germ agglutinin (Triticum aestivum), Alexa647-labelled; assay: Alexa647-WGA lectin binding to printed small molecules – biochemical, small-molecule microarray, 635/667 nm fluorescence, artefact control for SMM control-protein annotation, profiling panel (AID 1140); details: WGA-A647 binding, 635 nm fluorescence, higher = more signal;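 also: score merges 667 nm feature emission with signal to noise over triplicate slides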
Values of composite z-score greater than or equal to 0.5 map to 1 (yes); values below map to 0 (no).

compound: O=C(NCc1ccc(F)cc1)[C@H]1C[C@H]2C(=O)NCC(=O)N2[C@H]1c1ccc(O)cc1
class_assignment: 0 (no)
--
compound: COc1ccc([Si](C)(C)[C@@H]2[C@@H](CCO)O[C@]3(C(=O)N(Cc4cccc(NC(=O)[C@H](C)O)c4)c4ccccc43)[C@H]2C)cc1
class_assignment: 1 (yes)
--
compound: C#Cc1cc2ccccc2oc1=O
class_assignment: 0 (no)
--
compound: COc1ccc(CCNC(=O)[C@@]2(Cc3ccccc3I)c3ccccc3C(=O)N(C3CCCCC3)[C@H]2c2ccc(CO)cc2)cc1
class_assignment: 0 (no)
--
compound: CS(=O)(=O)CCOC(=O)C1=CC(CCCO)=CC(c2ccc(CN3CCCC3)cc2)N(Cc2sc3ccccc3c2Cl)C=C1C(=O)OCCS(C)(=O)=O (configuration not stated)
class_assignment: 1 (yes)
--
compound: O=C1CS(=O)(=O)C(c2cccc([N+](=O)[O-])c2)N1c1ccccc1 (configuration not stated)
class_assignment: 1 (yes)
--
compound: CC(=O)NCCCC[C@@H]1NC(=O)[C@@H]2C[C@H](C(=O)NCCCCCN)[C@H](c3ccc(O)cc3)N2C1=O
class_assignment: 0 (no)
--
compound: CCOC(=O)C1=CC[C@@H](c2ccccc2F)N(S(=O)(=O)c2ccc(C)cc2)[C@H]1c1ccccc1
class_assignment: 0 (no)
--
compound: CCCC1(C(=O)OC)C=C2C(=C(C)C(=O)C2C)CN1 (configuration not stated)
class_assignment: 1 (yes)
--
compound: CC1CC/C=C\[C@H]2OC34C=CCN(C(C)(C)C)C(=O)[C@H]3N(CCCCCO)C(=O)[C@@H]4C2C(=O)O1 (some centres not stated)
class_assignment: 0 (no)
--
compound: [N-]=[N+]=Nc1ccccc1[C@@H]1OC(c2ccc(OCCCO)cc2)=N[C@]1(Cc1ccccc1)C(=O)N1CCCCC1
class_assignment: 1 (yes)
--
compound: C=C(COC)/C(=C/C[C@H](OC(=O)c1ccncc1)c1ccccc1OCCO)c1cc(C(=O)OC)ccc1OC
class_assignment: 1 (yes)
--
compound: COC(=O)[C@@]1(Cc2ccccc2)[C@H]2c3cc(C(=O)N4CCCC4)n(CCc4ccccn4)c3C[C@H]2CN1C(=O)c1ccccc1
class_assignment: 1 (yes)
--
compound: O=C(O)[C@@H]1C[C@@H]2C(=O)N3CCC[C@H]3C(=O)N2[C@@H]1c1ccc(O)cc1
class_assignment: 0 (no)
--
compound: CCCCCCCCCCC(O)C1C=CC2C(=O)N(c3ccccc3)C(=O)C2N1Nc1ccc(C#N)cc1 (configuration not stated)
class_assignment: 1 (yes)
--
compound: O=C1OCCC=C[C@H]2OC34C=CCN(c5ccc6ccccc6c5)C(=O)[C@H]3N(CCCO)C(=O)[C@@H]4C12 (some centres not stated)
class_assignment: 0 (no)
--
compound: CCC#CCN(Cc1ccccc1Br)[C@H](/C=C/C1CC1)[C@@H](O)Cc1ccccc1
class_assignment: 0 (no)
--
compound: CC(C)C(CO)N1C(=O)[C@@H]2[C@H]3C(=O)OCC=C[C@H]3OC23C=CCN(c2ccc(Cl)cc2)C(=O)[C@@H]13 (some centres not stated)
class_assignment: 0 (no)
--
compound: CCCCN1CC=CC23O[C@@H]4/C=C\CCC(C)OC(=O)C4[C@H]2C(=O)N(CCCO)[C@@H]3C1=O (some centres not stated)
class_assignment: 0 (no)
--
compound: O=C(c1ccccc1)N1C(=O)[C@]2(Cc3ccccc31)N=C(c1ccc(OCCCO)cc1)O[C@@H]2c1ccccc1
class_assignment: 0 (no)
--
compound: O=C1O[C@@H](c2ccccc2)[C@@H](c2ccccc2)N2[C@@H](c3ccc(O)cc3)[C@]3(C(=O)Nc4ccc(C#CCCO)cc43)[C@@H](C(=O)N3CCN(c4ncccn4)CC3)[C@H]12
class_assignment: 0 (no)
--
compound: COC(=O)[C@@]1(Cc2ccc(F)cc2)[C@H]2c3cc(C(=O)N(C)C)n(Cc4ccc(OC(F)(F)F)cc4)c3C[C@H]2CN1C(=O)c1ccccc1
class_assignment: 0 (no)
--
compound: C=CC[C@@]1(C(=O)NCCCOC)N=C(c2ccc(OCCCO)cc2)O[C@@H]1c1ccccc1N=[N+]=[N-]
class_assignment: 1 (yes)
--
compound: CCOC(=O)[C@@H]1CCCCN1C(=O)C(=O)OC
class_assignment: 0 (no)
--
compound: CCC1=C2CN(Cc3ccccc3)[C@@H](C(=O)Cc3ccccc3)C2C=CCC1 (some centres not stated)
class_assignment: 1 (yes)
--
compound: C=C(/C(=C/C[C@H](OC(=O)c1ccncc1)c1ccc(CO)o1)c1cnc2ccccc2c1)C(C)C
class_assignment: 1 (yes)
--
compound: CCCNC(=O)[C@@]1(Sc2ccc(C)cc2)CC(=O)N(C2Cc3ccccc3C2)[C@@H]1c1ccc(CO)cc1I
class_assignment: 0 (no)
--
compound: CN(C)C(=O)[C@@]1(Cc2ccccc2)N=C(c2ccc(OCCCO)cc2)O[C@H]1c1ccccc1
class_assignment: 1 (yes)
--
compound: CCCCCCCCCC(O)C1C=CC2C(=O)N(c3ccccc3)C(=O)C2N1Nc1cc(OC)c(OC)c(OC)c1 (configuration not stated)
class_assignment: 0 (no)
--
compound: Cc1ccc(S[C@]2(C(=O)NC(C)C)CC(=O)N(Cc3cc(C(F)(F)F)cc(C(F)(F)F)c3)[C@@H]2c2ccc(CO)cc2)cc1
class_assignment: 0 (no)
--
compound: C=CC[C@H](OC(=O)Nc1ccc(SC)cc1)c1ccc(O)c2ccccc12
class_assignment: 1 (yes)
